Source listed as patent US20220025021A1.

target: HIV-1 Env of pseudovirus SC422661.8 (HIV-1); assay: cell-based or functional assay
MEASUREMENT_LABEL: neutralization IC50 (µg/mL)
Give just the number in µg/mL; leave the unit off.

Ask | Quick check: neutralization IC50 of MS-82 (antibody, V domains shown) VH: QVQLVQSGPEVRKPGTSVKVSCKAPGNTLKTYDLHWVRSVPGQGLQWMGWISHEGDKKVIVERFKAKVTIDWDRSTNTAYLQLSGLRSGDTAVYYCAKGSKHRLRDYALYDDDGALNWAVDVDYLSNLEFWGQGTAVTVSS VL: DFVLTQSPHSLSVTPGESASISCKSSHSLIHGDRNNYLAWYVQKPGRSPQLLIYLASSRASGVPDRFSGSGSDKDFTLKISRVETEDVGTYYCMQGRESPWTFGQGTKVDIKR ?
Reply | 0.387
